Where do the numbers come from? From ChEMBL document CHEMBL1147675.

For reference, pKi measured on Cathepsin B (Homo sapiens, UniProt P07858):
pKi: −log10 of the molar value. Peptide text beside a SMILES is read from it. * marks the point of attachment. Cbz = O=C(OCc1ccccc1)*
readout-name: pKi

> print(dat)
                                   molecule  value.measured
1  CC(C)C[C@@H](C#N)NC(=O)[C@H](CC(C)C)NC(=O)[C@H](CC(C)C)NC(=O)OCc1ccccc1            4.74
2  CC(C)C[C@@H](C=O)NC(=O)[C@H](CC(C)C)NC(=O)[C@H](CC(C)C)NC(=O)OCc1ccccc1 [MG-132] (Cbz-Leu-Leu-Leu-aldehyde)            7.92
3  Cc1ccc(S(=O)(=O)N[C@@H](CC(=O)NCC(C)(C)C)C(=O)N[C@@H](C)C(=O)N[C@@H](CC(C)C)C(=O)c2nnc(-c3ccccc3)o2)cc1            4.14

----------
- system-under-test: Cathepsin S (Homo sapiens, UniProt P25774)
- Sequence (P25774 whole entry): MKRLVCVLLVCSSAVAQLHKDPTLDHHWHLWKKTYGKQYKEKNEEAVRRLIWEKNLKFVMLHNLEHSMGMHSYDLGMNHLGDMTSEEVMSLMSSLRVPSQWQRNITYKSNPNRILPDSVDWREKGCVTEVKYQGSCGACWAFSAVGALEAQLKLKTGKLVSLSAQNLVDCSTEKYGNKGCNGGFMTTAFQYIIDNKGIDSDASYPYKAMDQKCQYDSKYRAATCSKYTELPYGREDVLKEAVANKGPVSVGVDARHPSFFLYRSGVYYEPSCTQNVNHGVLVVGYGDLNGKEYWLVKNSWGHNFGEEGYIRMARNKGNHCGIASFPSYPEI
pKi: −log10 of the molar value.
readout-name: pKi

> print(dat)
                            compound.smiles  value.measured
1  Cc1ccc(S(=O)(=O)N[C@@H](CC(=O)NCC(C)(C)C)C(=O)N[C@@H](C)C(=O)N[C@@H](CC(C)C)C(=O)c2nnc(-c3ccccc3)o2)cc1            4.41

----------
We begin with a simple list: items and their reported solubility.
- test: physchem
- condition-details: PBS, pH 7.4
- Description: Solubility in PBS at pH 7.4
readout-name: solubility

> print(dat)
                             compound.smiles  value.measured
 1  Cc1ccc(S(=O)(=O)N[C@@H](CC(=O)NCC(C)(C)C)C(=O)N[C@@H](CO)C(=O)N[C@H](/C=C/S(C)(=O)=O)CC(C)C)cc1          381 µM
 2  Cc1ccc(S(=O)(=O)N[C@@H](CC(=O)NCC(C)(C)C)C(=O)N[C@@H](C)C(=O)N[C@H](/C=C/S(C)(=O)=O)CC(C)C)cc1          470 µM
 3  COC[C@H](NC(=O)[C@H](CC(=O)NCC(C)(C)C)NS(=O)(=O)c1ccc(C)cc1)C(=O)N[C@@H](CC(C)C)C(=O)c1nnc(-c2ccccc2)o1           37 µM
 4  Cc1ccc(S(=O)(=O)N[C@@H](CC(=O)NCC(C)(C)C)C(=O)N[C@@H](C)C(=O)N[C@@H](CC(C)C)C(=O)c2nnc(-c3ccccc3)o2)cc1           13 µM
 5  Cc1ccc(S(=O)(=O)N[C@@H](CCC(=O)OC(C)(C)C)C(=O)N[C@@H](C)C(=O)N[C@H](/C=C/S(C)(=O)=O)CC(C)C)cc1           48 µM
 6  CC[C@H](C)[C@H](NC(=O)OCc1ccccc1)C(=O)N[C@@H](CCc1ccccc1)C(=O)N[C@@H](C)C(=O)N[C@H](/C=C/S(C)(=O)=O)CC(C)C         < 10 µM
 7  CC(C)C[C@@H](/C=C/S(C)(=O)=O)NC(=O)[C@H](C)NC(=O)[C@H](CCC(=O)OC(C)(C)C)NC(=O)C(c1ccccc1)c1ccccc1         < 10 µM
 8  Cc1cccc(S(=O)(=O)N[C@@H](CC(=O)NCC(C)(C)C)C(=O)N[C@@H](C)C(=O)N[C@@H](CC(C)C)C(=O)c2nnc(-c3ccccc3)o2)c1         < 10 µM
 9  CC[C@H](C)[C@H](NC(=O)OCc1ccccc1)C(=O)N[C@@H](CC(=O)NCC(C)(C)C)C(=O)N[C@@H](C)C(=O)N[C@H](/C=C/S(C)(=O)=O)CC(C)C         < 10 µM
10  Cc1ccc(S(=O)(=O)N[C@@H](CC(=O)NCC(C)(C)C)C(=O)NC(C)(C)C(=O)N[C@H](/C=C/S(C)(=O)=O)CC(C)C)cc1          500 µM
11  CC[C@H](C)[C@H](NC(=O)OCc1ccccc1)C(=O)N[C@@H](CCC(=O)OC(C)(C)C)C(=O)N[C@@H](C)C(=O)N[C@H](/C=C/S(C)(=O)=O)CC(C)C         < 10 µM
12  CC[C@H](C)[C@H](NC(=O)OCc1ccccc1)C(=O)N[C@@H](CCC(=O)NC(C)(C)C)C(=O)N[C@@H](C)C(=O)N[C@H](/C=C/S(C)(=O)=O)CC(C)C           57 µM
